targetOrTestSystem: human recombinant 5-LOX (Homo sapiens)
Sequence (P09917 whole entry): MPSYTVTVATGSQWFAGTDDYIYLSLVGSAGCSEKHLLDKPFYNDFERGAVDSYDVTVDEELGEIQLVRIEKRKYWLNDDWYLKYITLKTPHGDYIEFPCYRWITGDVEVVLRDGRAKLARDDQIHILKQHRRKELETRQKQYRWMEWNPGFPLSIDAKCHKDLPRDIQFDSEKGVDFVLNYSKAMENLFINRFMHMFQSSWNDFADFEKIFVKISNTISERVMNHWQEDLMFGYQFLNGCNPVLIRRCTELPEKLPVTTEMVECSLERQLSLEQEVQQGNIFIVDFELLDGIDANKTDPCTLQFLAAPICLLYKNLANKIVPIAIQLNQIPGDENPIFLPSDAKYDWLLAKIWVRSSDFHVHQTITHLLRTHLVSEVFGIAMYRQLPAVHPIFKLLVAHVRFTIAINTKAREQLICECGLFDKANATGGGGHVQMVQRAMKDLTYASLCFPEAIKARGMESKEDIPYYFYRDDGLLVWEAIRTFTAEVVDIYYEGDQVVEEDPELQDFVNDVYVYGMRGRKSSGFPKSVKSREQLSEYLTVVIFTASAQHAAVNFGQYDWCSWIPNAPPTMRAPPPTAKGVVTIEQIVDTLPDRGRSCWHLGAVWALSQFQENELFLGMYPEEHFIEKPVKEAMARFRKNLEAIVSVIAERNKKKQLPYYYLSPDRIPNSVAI
protocol: 5-LOX enzyme kinetics
Assay type: biochemical
quantityName: Ki
For clarity, give the value followed by its unit.

Suppose we examine the molecule CC(C)=CCC/C(C)=C/CC/C(C)=C/CC[C@]1(C)CCc2cc(O)cc(C)c2O1 [δTE, δ-tocotrienol] ; what Ki value has been reported? 2200 nM

====

targetOrTestSystem: human recombinant COX-1 (Homo sapiens)
Sequence (P23219 24-599): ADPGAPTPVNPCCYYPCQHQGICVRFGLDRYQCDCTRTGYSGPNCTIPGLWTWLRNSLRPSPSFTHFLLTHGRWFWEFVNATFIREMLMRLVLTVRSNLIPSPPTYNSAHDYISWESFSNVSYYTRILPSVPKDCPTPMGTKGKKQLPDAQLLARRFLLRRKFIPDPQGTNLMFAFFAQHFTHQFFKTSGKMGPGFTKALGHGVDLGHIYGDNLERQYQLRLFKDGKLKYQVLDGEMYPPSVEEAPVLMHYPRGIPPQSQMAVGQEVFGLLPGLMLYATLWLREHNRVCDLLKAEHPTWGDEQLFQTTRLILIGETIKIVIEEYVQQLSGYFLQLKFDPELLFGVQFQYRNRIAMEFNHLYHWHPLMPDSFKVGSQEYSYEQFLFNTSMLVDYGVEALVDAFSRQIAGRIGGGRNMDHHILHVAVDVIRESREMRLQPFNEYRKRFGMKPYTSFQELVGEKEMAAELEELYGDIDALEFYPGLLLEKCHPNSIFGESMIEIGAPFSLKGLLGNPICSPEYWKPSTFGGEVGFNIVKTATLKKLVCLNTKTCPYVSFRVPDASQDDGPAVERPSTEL
protocol: COX-1 activity assay using purified enzyme
In this section, each of the compounds is paired with its reported IC50.

Worked cases, IC50 given:
{"structureNotation": "CC(C)=CCC/C(C)=C/CC/C(C)=C/CC[C@]1(C)CCc2cc(O)cc(C)c2O1", "IC50": "1000 to 2500 nM"}
{"structureNotation": "Cc1c(C)c2c(c(C)c1O)CC[C@@](C)(CCC[C@H](C)CCC[C@H](C)CCCC(C)C)O2", "IC50": "~12000 nM"}
{"structureNotation": "CC(C)=CCC/C(C)=C/CC/C(C)=C/CC[C@]1(C)CCc2cc(O)c(C)c(C)c2O1", "IC50": "1000 to 2500 nM"}

Let's switch to this compound now.
Suppose we examine the compound Cc1c(O)cc2c(c1C)O[C@](C)(CCC[C@H](C)CCC[C@H](C)CCCC(C)C)CC2 ; what IC50 value has been reported? 1000 to 2500 nM
